Molecular target: intracellular GCN2 (phosphorylation of the GCN2 substrate eIF2α) (Homo sapiens)
Sequence (Q9P2K8 whole entry): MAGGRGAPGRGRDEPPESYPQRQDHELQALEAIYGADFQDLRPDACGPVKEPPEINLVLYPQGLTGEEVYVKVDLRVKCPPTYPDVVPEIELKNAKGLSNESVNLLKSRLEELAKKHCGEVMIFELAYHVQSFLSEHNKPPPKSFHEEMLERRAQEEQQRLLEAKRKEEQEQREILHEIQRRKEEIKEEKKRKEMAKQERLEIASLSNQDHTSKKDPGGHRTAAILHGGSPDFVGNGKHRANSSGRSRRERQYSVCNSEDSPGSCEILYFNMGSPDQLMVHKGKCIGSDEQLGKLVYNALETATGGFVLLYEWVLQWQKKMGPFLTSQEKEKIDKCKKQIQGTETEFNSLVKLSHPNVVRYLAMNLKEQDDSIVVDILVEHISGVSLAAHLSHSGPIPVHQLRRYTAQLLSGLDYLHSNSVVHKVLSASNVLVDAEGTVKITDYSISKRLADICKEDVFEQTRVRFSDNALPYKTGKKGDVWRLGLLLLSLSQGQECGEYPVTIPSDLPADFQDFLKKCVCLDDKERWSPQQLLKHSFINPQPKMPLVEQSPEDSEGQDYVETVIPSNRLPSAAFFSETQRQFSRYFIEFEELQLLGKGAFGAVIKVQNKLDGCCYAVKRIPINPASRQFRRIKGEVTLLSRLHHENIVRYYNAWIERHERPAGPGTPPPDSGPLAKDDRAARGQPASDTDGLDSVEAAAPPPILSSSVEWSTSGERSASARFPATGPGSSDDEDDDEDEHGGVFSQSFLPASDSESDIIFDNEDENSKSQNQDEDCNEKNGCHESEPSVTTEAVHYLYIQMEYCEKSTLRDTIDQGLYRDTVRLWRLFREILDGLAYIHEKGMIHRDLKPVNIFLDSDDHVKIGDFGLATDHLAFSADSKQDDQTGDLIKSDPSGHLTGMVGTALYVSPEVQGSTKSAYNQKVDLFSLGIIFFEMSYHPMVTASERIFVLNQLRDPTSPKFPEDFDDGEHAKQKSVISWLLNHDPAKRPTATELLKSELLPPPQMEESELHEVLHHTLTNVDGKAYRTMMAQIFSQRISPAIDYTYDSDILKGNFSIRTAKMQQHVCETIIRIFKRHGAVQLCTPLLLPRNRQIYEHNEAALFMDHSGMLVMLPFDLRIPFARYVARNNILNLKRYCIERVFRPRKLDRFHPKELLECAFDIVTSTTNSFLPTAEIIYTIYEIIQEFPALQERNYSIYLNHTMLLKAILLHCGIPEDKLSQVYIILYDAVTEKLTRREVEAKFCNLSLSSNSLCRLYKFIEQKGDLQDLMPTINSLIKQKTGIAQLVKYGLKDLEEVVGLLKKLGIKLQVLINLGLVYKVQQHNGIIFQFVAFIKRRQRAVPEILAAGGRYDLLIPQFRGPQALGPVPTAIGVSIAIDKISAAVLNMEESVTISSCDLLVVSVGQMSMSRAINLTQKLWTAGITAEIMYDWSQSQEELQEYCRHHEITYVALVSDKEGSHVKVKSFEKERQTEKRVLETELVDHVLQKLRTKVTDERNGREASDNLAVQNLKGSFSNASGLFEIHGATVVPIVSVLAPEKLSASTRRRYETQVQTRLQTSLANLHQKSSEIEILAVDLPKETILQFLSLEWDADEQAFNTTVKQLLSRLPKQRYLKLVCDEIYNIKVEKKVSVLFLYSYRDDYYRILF
Assay: GCN2 cellular inhibition assay (AlphaScreen SureFire P-eIF2α Ser51, borrelidin-treated U2OS cells)
Format: cell-based
Conditions: compounds of Formula IV; biomarker assay, phosphorylated eIF2α Ser51 in borrelidin-treated U2OS cells
Measured Attribute: IC50

# IC50 (molecule: CC1CN(c2ccnc(-c3cnc4cnc(C(F)(F)F)cn34)n2)C(C)C(c2c[nH]cn2)O1 (stereo not drawn) [IV-525] ) is 0.5 to 5 µM

# IC50 (molecule: OCC1CC(c2cn[nH]c2)CN(c2ccnc(-c3cnc4cnc(C(F)(F)F)cn34)n2)C1 (stereo not drawn) ) is < 0.5 µM

# IC50 (molecule: CC1CN(c2ccnc(-c3cnc4cnc(C(F)(F)F)cn34)n2)C(C)C(c2cn[nH]c2)O1 (single isomer, unassigned) [IV-451] ) is < 0.5 µM

# credit: patent US10988477B2
